Conditions: 333.15 K; 5000 kPa; Liquid; Vibrating tube method
measurementKind: mass density (kg/m3)

- molecule: "CC(C)OC(C)C [diisopropyl ether]"
  mass density / kg/m3: 688.97
- molecule: "CCCCOCC [butyl ethyl ether]"
  mass density / kg/m3: 717.05
- molecule: "CCCCOC [butyl methyl ether]"
  mass density / kg/m3: 711.19
- molecule: "CCCCCOCCCCC [dipentyl ether]"
  mass density / kg/m3: 755.54
- molecule: "CC(C)CCOCCC(C)C [di-(3-methylbutyl) ether]"
  mass density / kg/m3: 747.34
- molecule: "CCCOCCC [dipropyl ether]"
  mass density / kg/m3: 714.57
- molecule: "CCOC(C)(C)C [2-ethoxy-2-methylpropane]"
  mass density / kg/m3: 706.19

---

Conditions: 303.15 K; 30000 kPa; Liquid; Vibrating tube method
measurementKind: mass density (kg/m3)

- chemicalStructure: "COC(C)(C)C"
  numericValue: 761.51
- chemicalStructure: "CCCCOCC"
  numericValue: 768.49
- chemicalStructure: "CCOC(C)(C)C"
  numericValue: 761.74
- chemicalStructure: "CC(C)OC(C)C"
  numericValue: 746.43
- chemicalStructure: "CC(C)CCOCCC(C)C"
  numericValue: 790.53
- chemicalStructure: "CCCOCCC"
  numericValue: 766.76
- chemicalStructure: "CCCCCOCCCCC"
  numericValue: 797.48
- chemicalStructure: "CCCCOC"
  numericValue: 764.89

---

Conditions: 303.15 K; 60000 kPa; Liquid; Vibrating tube method
measurementKind: mass density (kg/m3)

- compound: "CC(C)OC(C)C [diisopropyl ether]"
  measurementUnit: "kg/m3"
  mass density: 770.24
- compound: "CCCOCCC [dipropyl ether]"
  measurementUnit: "kg/m3"
  mass density: 788.28
- compound: "CC(C)CCOCCC(C)C [di-(3-methylbutyl) ether]"
  measurementUnit: "kg/m3"
  mass density: 809.23
- compound: "CCCCCOCCCCC [dipentyl ether]"
  measurementUnit: "kg/m3"
  mass density: 815.39
- compound: "CCCCOC [butyl methyl ether]"
  measurementUnit: "kg/m3"
  mass density: 786.77
- compound: "CCCCOCC [butyl ethyl ether]"
  measurementUnit: "kg/m3"
  mass density: 789.75
- compound: "CCOC(C)(C)C [2-ethoxy-2-methylpropane]"
  measurementUnit: "kg/m3"
  mass density: 784.56
- compound: "COC(C)(C)C [2-methoxy-2-methylpropane]"
  measurementUnit: "kg/m3"
  mass density: 784.37

---

Settings: 328.15 K; 30000 kPa; Liquid; Vibrating tube method
measurementKind: mass density (kg/m3)

- compound: "CC(C)OC(C)C [diisopropyl ether]"
  mass density [kg/m3]: 725.37
- compound: "CCCOCCC [dipropyl ether]"
  mass density [kg/m3]: 746.37
- compound: "CCCCOC [butyl methyl ether]"
  mass density [kg/m3]: 743.83
- compound: "CC(C)CCOCCC(C)C [di-(3-methylbutyl) ether]"
  mass density [kg/m3]: 773.28
- compound: "CCCCOCC [butyl ethyl ether]"
  mass density [kg/m3]: 748.27
- compound: "CCCCCOCCCCC [dipentyl ether]"
  mass density [kg/m3]: 780.18
- compound: "CCOC(C)(C)C [2-ethoxy-2-methylpropane]"
  mass density [kg/m3]: 740.83

All figures here come from the NIST ThermoML archive (doi:10.1016/j.fluid.2016.02.009).
